Please find below IC50 data on UniProtKB Q9NWZ3 compiled from the literature.
READOUT NAME: IC50

{"MOLECULE": "C=CC(=O)N1CCC[C@H](c2nc(-c3ccc(NC(=O)c4cccc(-c5ccnn5CC5(C(F)(F)F)CC5)n4)nc3)no2)C1", "READOUT NAME": "IC50", "RESULT": "> 10 µM"}
{"MOLECULE": "COc1cc2nc(C3COCCO3)cn2cc1NC(=O)c1cccn(C2CC2)c1=O (single isomer, unassigned)", "READOUT NAME": "IC50", "RESULT": "0.005 to 0.01 µM"}
{"MOLECULE": "C[C@H](N)c1cccc(-c2ccc3cnn(-c4cccc(CO)n4)c3c2)n1", "READOUT NAME": "IC50", "RESULT": "< 0.1 µM"}
{"MOLECULE": "N[C@H](c1cccc(-c2ccc3cnn(-c4nccc(CO)n4)c3c2)n1)[C@H]1C[C@@H](O)C1", "READOUT NAME": "IC50", "RESULT": "≤ 0.1 µM"}
{"MOLECULE": "C[C@@H]1CC[C@@H](C)N1C(=O)CCc1cn(-c2ccccc2)c(NC(=O)c2cccc(-c3cn[nH]c3)c2)n1", "READOUT NAME": "IC50", "RESULT": "< 0.05 µM"}
{"MOLECULE": "Cn1cc(-c2cccc(-c3ncc(-c4cnn(C)c4)c(NCC4CN(S(C)(=O)=O)CCO4)n3)c2)cn1 (centres unmarked)", "READOUT NAME": "IC50", "RESULT": "< 0.1 µM"}
{"MOLECULE": "Cc1cc(Nc2nc(NC3CCC(=O)CC3)c3c(ccn3-c3cnn(C)c3)n2)sn1", "READOUT NAME": "IC50", "RESULT": "0.1 to 1 µM"}
{"MOLECULE": "NC(=O)/C=C/c1ccc2ncnc(N[C@H]3CC[C@H](N4CCOCC4)CC3)c2c1", "READOUT NAME": "IC50", "RESULT": "≤ 5 µM"}
{"MOLECULE": "CN1CCN(C(=O)CCCc2cn(-c3ccccc3)c(NC(=O)c3cccc(-c4ccc(N)nc4)c3)n2)CC1", "READOUT NAME": "IC50", "RESULT": "< 0.05 µM"}
{"MOLECULE": "Cn1cc(Nc2cc(-c3cnn4cc(Cl)cnc34)ncc2C(=O)N[C@H]2CC[C@H](C(C)(C)O)CC2)cn1", "READOUT NAME": "IC50", "RESULT": "0.003 µM"}
{"MOLECULE": "Cc1nc2c(N[C@H]3CC[C@H](N4CCC(O)CC4)CC3)nc(Nc3cnn(C)c3)nc2s1", "READOUT NAME": "IC50", "RESULT": "≤ 1 µM"}
{"MOLECULE": "CC(C)(O)c1cc2nn(C3CCN(CCN4CCN(c5ccc6c(c5)C(=O)N(C5CCC(=O)NC5=O)C6=O)CC4)CC3)cc2cc1NC(=O)c1cccc(C(F)(F)F)n1 (centres unmarked)", "READOUT NAME": "IC50", "RESULT": "0.0178 µM"}
{"MOLECULE": "CN1CCN(C(=O)CCc2cn(-c3ccccc3)c(NC(=O)c3cccc(-c4cnn(C)c4)c3)n2)CC1", "READOUT NAME": "IC50", "RESULT": "< 0.05 µM"}
{"MOLECULE": "COc1cccc(Nc2nc(C)c(-c3nc4ccccc4s3)c(N[C@@H]3C[C@H](CO)[C@@H](O)[C@H]3O)n2)c1", "READOUT NAME": "IC50", "RESULT": "0.87 µM"}
{"MOLECULE": "CC(O)Cc1cn(-c2cnc(-n3ncc4cc(C#N)cnc43)cc2NC(C)C)nn1 (single isomer, unassigned)", "READOUT NAME": "IC50", "RESULT": "0.005 µM"}
{"MOLECULE": "Cn1cc(-c2cccc(-c3ncc(-c4cnn(C)c4)c(NC[C@H]4CC[C@@H](O)CC4)n3)c2)cn1", "READOUT NAME": "IC50", "RESULT": "< 0.1 µM"}
{"MOLECULE": "COCC(O)Cn1cc(-c2cnc(-n3ncc4cc(C#N)cnc43)cc2NC(C)C)nn1 (centres unmarked)", "READOUT NAME": "IC50", "RESULT": "0.01 µM"}
